Biological target: FGFR3 (Homo sapiens (Human), UniProt P22607)
Sequence (P22607 23-806): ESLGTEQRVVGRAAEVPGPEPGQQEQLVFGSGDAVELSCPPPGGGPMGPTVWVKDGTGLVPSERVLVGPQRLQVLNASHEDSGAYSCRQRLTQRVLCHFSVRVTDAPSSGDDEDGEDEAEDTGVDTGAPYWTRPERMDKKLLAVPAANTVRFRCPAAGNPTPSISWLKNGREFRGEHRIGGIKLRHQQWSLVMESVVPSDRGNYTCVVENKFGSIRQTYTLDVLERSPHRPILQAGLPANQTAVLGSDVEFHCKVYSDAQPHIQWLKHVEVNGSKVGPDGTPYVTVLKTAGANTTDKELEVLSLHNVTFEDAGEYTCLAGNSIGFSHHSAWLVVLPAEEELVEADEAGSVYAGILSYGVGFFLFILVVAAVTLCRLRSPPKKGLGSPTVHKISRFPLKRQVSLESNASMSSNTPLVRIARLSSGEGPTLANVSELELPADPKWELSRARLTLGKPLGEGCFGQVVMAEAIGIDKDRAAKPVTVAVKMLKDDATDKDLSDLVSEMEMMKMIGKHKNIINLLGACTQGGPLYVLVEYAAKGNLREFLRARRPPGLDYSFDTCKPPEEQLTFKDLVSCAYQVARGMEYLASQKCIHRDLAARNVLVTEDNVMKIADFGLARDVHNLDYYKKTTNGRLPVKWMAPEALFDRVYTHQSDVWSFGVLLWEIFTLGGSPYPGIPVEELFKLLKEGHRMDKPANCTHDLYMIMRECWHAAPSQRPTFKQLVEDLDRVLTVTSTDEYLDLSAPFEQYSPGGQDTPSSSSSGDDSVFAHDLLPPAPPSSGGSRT
Assay: Kinase assay, binding constants (Kd), kinase-tagged T7 phage, qPCR
OBSERVATION TYPE: Kd

COMPOUND	TEST SYSTEM	RECORDED MEASUREMENT
CCOC(=O)N1CC2(C1)CN(c1ncc(-c3n[nH]c4ccc(O[C@H](C)c5c(C)cnnc5C)cc34)cn1)C2 [Example 146]	FGFR3 (Homo sapiens (Human), UniProt P22607)	1 to 20 nM
C[C@@H](Oc1ccc2[nH]nc(-c3cnc(N4CC5(CCCNC5)C4)nc3)c2c1)c1c(Cl)cncc1Cl [Example 132]	FGFR3 (Homo sapiens (Human), UniProt P22607)	1 to 20 nM
COc1cc2[nH]nc(-c3ccc(N4CC5(C4)CN(S(C)(=O)=O)C5)nc3)c2cc1O[C@H](C)c1c(Cl)cnnc1Cl [Example 261]	FGFR3 (Homo sapiens (Human), UniProt P22607)	1 to 20 nM
C[C@@H](Oc1ccc2[nH]nc(-c3ccc(N4CC5(CCCNC5)C4)nc3)c2c1)c1c(Cl)cncc1Cl [Example 161]	FGFR3 (Homo sapiens (Human), UniProt P22607)	1 to 20 nM
C[C@@H]1CCN1c1ncc(-c2n[nH]c3cc(Cl)c(O[C@H](C)c4c(Cl)cncc4Cl)cc23)cc1F [Example 272]	FGFR3 (Homo sapiens (Human), UniProt P22607)	20 to 100 nM
C[C@@H](Oc1cc2c(-c3cnc(N4CC5(C4)CN(S(C)(=O)=O)C5)c(F)c3)n[nH]c2cc1Cl)c1c(Cl)cnnc1Cl [Example 264]	FGFR3 (Homo sapiens (Human), UniProt P22607)	1 to 20 nM

Data provenance is patent US20240109865A1.
